# assay.system: human FAAH (Homo sapiens, UniProt O00519)
# Construct: host or cells: COS-7 cells, transient transfection (FuGENE 6); 13,000 g membrane fraction solubilised in 1% Triton X-100
# Sequence (O00519 1-579): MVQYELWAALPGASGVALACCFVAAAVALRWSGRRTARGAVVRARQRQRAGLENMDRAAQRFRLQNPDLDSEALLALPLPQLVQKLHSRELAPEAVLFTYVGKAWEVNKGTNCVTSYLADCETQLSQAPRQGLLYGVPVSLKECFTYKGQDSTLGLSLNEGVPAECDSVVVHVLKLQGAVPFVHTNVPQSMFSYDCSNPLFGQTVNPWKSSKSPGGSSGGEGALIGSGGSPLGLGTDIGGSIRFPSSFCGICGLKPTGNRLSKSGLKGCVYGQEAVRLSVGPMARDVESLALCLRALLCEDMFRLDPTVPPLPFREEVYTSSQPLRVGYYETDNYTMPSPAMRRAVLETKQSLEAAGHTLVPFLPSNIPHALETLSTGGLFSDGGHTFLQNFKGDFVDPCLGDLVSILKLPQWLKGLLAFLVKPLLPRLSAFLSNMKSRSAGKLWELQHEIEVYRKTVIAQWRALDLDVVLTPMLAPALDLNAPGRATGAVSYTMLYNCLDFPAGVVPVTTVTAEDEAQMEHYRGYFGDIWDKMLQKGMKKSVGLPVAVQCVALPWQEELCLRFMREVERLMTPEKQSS
# measurement.notes: Human FAAH biochemical inhibition assay (AMC arachidonoyl amide fluorescence)
# applied.conditions: class given in each Example, read-out: Activity (Ki, inhibition of human FAAH)
# Method: Exemplary compounds are set forth in the Examples provided below. Compounds were assayed as inhibitors of human FAAH using the method described in detail in Example 286. […] Rat FAAH biochemical assays were carried out in a 96 well flat bottom black non-treated polystyrene plates (Corning Costar Catalogue #3915). […] The reaction was read in an Envision microtiter plate reader [Excitation filter 355 nm (40 nm bandpass); Emmision filter 460 nm (25 nm bandpass)]. […]
pKi: −log10 of the molar value.
Reported values of pKi for individual entries
observation.type: pKi

>>> recorded_measurement("Cc1nnc(-c2cc(C(F)(F)F)ccc2B(O)O)o1 [Compound 11]")
"6.00 to 7.00"
>>> recorded_measurement("OB(O)c1ccc(-c2nc(-c3ccccc3)c[nH]2)cc1F [Compound 7]")
"< 6.00"
>>> recorded_measurement("OB(O)c1ccc(-n2nncc2-c2ccccc2)cc1F [Compound 142]")
"6.00 to 7.00"
>>> recorded_measurement("NCC(=O)N/N=C/c1cc(OCc2ccccc2)ccc1B(O)O [Compound 118]")
"< 6.00"
>>> recorded_measurement("CCCCc1nnc(-c2ccc(B(O)O)cc2)o1 [Compound 42]")
"≥ 8.00"
>>> recorded_measurement("OB(O)c1ccccc1-c1nnc(-c2ccccc2)o1 [Compound 31]")
"< 6.00"
>>> recorded_measurement("CCCc1nnc(-c2cc(Oc3cccnc3)ccc2B(O)O)o1 [Compound 296]")
"7.00 to 8.00"
>>> recorded_measurement("O=C(Cc1ccccc1)N/N=C/c1ccccc1B(O)O [Compound 121]")
"< 6.00"
>>> recorded_measurement("OB(O)c1ccc(-c2cc(-c3ccccc3)no2)cc1 [Compound 156]")
"≥ 8.00"
>>> recorded_measurement("OB(O)c1ccc2cc(Oc3ncccn3)ccc2c1 [Compound 208]")
"≥ 8.00"

----------
# assay.system: human FAAH (Homo sapiens, UniProt O00519)
# Construct: host or cells: COS-7 cells, transient transfection (FuGENE 6); 13,000 g membrane fraction solubilised in 1% Triton X-100
# Sequence (O00519 1-579): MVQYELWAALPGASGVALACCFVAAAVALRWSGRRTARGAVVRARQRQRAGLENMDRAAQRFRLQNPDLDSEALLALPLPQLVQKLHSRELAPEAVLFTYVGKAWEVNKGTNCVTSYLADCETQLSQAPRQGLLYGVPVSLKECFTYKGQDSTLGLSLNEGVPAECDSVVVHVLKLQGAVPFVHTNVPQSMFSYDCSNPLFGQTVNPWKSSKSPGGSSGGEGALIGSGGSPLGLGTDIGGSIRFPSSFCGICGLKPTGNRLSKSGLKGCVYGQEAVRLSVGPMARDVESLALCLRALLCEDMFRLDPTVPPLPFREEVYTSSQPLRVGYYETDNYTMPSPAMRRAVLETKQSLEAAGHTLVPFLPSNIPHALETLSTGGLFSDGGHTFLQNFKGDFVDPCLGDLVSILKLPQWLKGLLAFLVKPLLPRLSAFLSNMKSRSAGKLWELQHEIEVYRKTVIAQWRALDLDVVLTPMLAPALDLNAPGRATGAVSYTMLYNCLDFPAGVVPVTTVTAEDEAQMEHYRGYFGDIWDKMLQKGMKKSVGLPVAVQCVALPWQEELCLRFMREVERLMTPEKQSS
# measurement.notes: Human FAAH biochemical inhibition assay (AMC arachidonoyl amide fluorescence)
# applied.conditions: class given in each Example, read-out: Activity (Ki, inhibition of human FAAH)
observation.type: Ki

>>> recorded_measurement("OB(O)c1ccc(-c2nnc(-c3ccccc3)o2)cc1F")
"0.01 to 0.1 µM"
>>> recorded_measurement("CC(C)(C)OC(=O)NCC(=O)N/N=C/c1cc(OCc2ccccc2)ccc1B(O)O")
"0.01 to 0.1 µM"
>>> recorded_measurement("O=C(/C=C/c1cc(OCCc2ccccc2)ccc1B(O)O)NCc1ccco1")
"> 1 µM"
>>> recorded_measurement("CCCc1nc2ccc(B(O)O)cc2o1")
"≤ 0.01 µM"
>>> recorded_measurement("COc1ccc2cc(B(O)O)ccc2n1")
"0.01 to 0.1 µM"

----------
# assay.system: human FAAH (Homo sapiens, UniProt O00519)
# Construct: host or cells: COS-7 cells, transient transfection (FuGENE 6); 13,000 g membrane fraction solubilised in 1% Triton X-100
# measurement.notes: Human FAAH biochemical inhibition assay (AMC arachidonoyl amide fluorescence)
# applied.conditions: class given in each Example, read-out: Activity (Ki, inhibition of human FAAH)
Ki by entry:
observation.type: Ki

>>> recorded_measurement("OB(O)c1ccc(-c2nnc(-c3ccccc3)o2)s1 [Compound 56]")
"10 to 100 nM"
>>> recorded_measurement("Cc1cc(Oc2ccccc2)nc2ccc(B(O)O)cc12 [Compound 213]")
"≤ 10 nM"
>>> recorded_measurement("OB(O)c1ccc(-c2nnc(Cc3ccccc3)o2)cc1 [Compound 70]")
"≤ 10 nM"
>>> recorded_measurement("CN(CCc1ccc(B(O)O)cc1)C(=O)OC(C)(C)C [Compound 234]")
"≤ 10 nM"
>>> recorded_measurement("O=C(CCB(O)O)N1CCN(C(=O)OCc2ccccc2)CC1 [Compound 322]")
"10 to 100 nM"
>>> recorded_measurement("COc1cccc(-c2nnc(-c3ccc(B(O)O)cc3)o2)c1 [Compound 66]")
"≤ 10 nM"
>>> recorded_measurement("OB(O)c1ccc(-c2nnc(CCC3CCCC3)o2)cc1 [Compound 33]")
"≤ 10 nM"
>>> recorded_measurement("OB(O)c1ccc2nc(OC3CCCCC3)ccc2c1 [Compound 192]")
"10 to 100 nM"
>>> recorded_measurement("CCC(C)CCc1nnc(-c2ccc(B(O)O)cc2)o1 (stereo not shown) [Compound 32]")
"≤ 10 nM"
>>> recorded_measurement("OB(O)c1ccc(-c2cn(-c3ccccc3)nn2)cc1F [Compound 134]")
"10 to 100 nM"

----------
# assay.system: human FAAH (Homo sapiens)
# Construct: host or cells: COS-7 cells, transient transfection (FuGENE 6); 13,000 g membrane fraction solubilised in 1% Triton X-100
# Sequence (O00519 1-579): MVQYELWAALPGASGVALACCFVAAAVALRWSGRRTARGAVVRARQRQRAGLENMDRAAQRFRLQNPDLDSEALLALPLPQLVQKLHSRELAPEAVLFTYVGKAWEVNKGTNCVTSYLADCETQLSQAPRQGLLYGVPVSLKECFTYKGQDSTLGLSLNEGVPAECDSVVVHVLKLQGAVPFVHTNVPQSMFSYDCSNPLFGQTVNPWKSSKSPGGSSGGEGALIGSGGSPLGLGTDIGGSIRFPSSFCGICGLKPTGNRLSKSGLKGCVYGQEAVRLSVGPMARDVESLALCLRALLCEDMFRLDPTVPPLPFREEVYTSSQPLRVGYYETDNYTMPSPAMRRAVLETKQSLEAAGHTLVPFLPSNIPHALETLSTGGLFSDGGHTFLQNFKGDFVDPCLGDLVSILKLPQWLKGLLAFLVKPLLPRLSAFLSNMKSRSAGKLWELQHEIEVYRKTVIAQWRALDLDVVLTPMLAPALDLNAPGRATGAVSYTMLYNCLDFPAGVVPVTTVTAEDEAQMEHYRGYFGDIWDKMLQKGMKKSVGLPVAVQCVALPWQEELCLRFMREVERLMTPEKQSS
# measurement.notes: Human FAAH biochemical inhibition assay (AMC arachidonoyl amide fluorescence)
# applied.conditions: Table A, read-out: Activity (Ki) of other boronic acids tested, Table A
pKi: −log10 of the molar value.
Recorded pKi for the following molecules
observation.type: pKi

>>> recorded_measurement("O=C(Nc1ccccn1)c1ccc(B(O)O)cc1")
"7.00 to 8.00"
>>> recorded_measurement("CCOC(=O)COc1ccc(B(O)O)cc1")
"6.00 to 7.00"
>>> recorded_measurement("NNC(=O)CCc1ccc(B(O)O)cc1")
"6.00 to 7.00"
>>> recorded_measurement("O=C(NCCCO)c1ccc(B(O)O)cc1")
"< 6.00"
>>> recorded_measurement("Cc1cc(B2OC(C)(C)C(C)(C)O2)cnc1N1CCN(C)CC1")
"< 6.00"
>>> recorded_measurement("CC(=O)NCc1ccc(B(O)O)cc1")
"< 6.00"
>>> recorded_measurement("OCCCc1ccc(B(O)O)cc1")
"6.00 to 7.00"

Reference source: patent US8957049B2
